# maps each entry to its IC50
Target: Gamma-secretase
Experiment: Displacement of [3H]IN973 from gamma-secretase in human THP1 cells
Format: cell-based
Settings: thp-1

Observe how each entry below is paired with its result.
# compound, measured.value
data = [
    ("C[C@H](NC(=O)Cc1cc(F)cc(F)c1)C(=O)N[C@H](C(=O)OC(C)(C)C)c1ccccc1", "6.3 nM"),
    ("CC(C)C[C@H](NC(=O)OCc1ccccc1)C(=O)N[C@@H](CC(C)C)C(=O)NCC(=O)CNC(=O)[C@H](CC(C)C)NC(=O)[C@H](CC(C)C)NC(=O)OCc1ccccc1", "2060 nM"),
]

Measured IC50 for this entry CSc1ccc(/C=C2/C(C)=C(CC(=O)O)c3cc(F)ccc32)cc1 [SULINDAC SULFIDE] on Gamma-secretase: 332000 nM

Recorded IC50 for CC(C)C[C@H](NC(=O)[C@H](Cc1ccccc1)C[C@@H](O)[C@H](Cc1ccccc1)NC(=O)OC(C)(C)C)C(=O)N[C@@H](Cc1ccccc1)C(N)=O on Gamma-secretase was 72 nM

// assay Gamma-secretase, entry C[C@H](c1ccc(F)cc1CCCC(=O)O)N(c1cc(F)ccc1F)S(=O)(=O)c1ccc(Cl)cc1 , IC50 value = 12 nM

Response field IC50 (Gamma-secretase) for item C[C@H](NC(=O)[C@@H](O)c1cc(F)cc(F)c1)C(=O)N[C@@H]1C(=O)N(C)N=Cc2ccccc21 : 1.2 nM
